- assay_explanation: NCI Yeast Anticancer Drug Screen. Data for the sgs1 strain (AID 173);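 further: 0% = growth of vehicle-only control cultures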
- experimental_conditions: S. cerevisiae sgs1 mutant, at 11.0 µM, active compounds read high
Compounds without any hit were thinned out: in the full panel of roughly 79,000, 15% have a hit.
Listing of recorded growth inhibition by entry.

- molecule: "OC(CC(O)(C(F)(F)F)C(F)(F)F)c1ccc(C(O)CC(O)(C(F)(F)F)C(F)(F)F)cc1 (stereo unspecified)"
  growth inhibition, %: 87
- molecule: "O=C(Cc1ccccc1)NN1C(=O)C(Cl)C1c1cc(Br)cc(Br)c1O (stereo unspecified)"
  growth inhibition, %: 92
- molecule: "c1ccc2c(c1)N=C1CCCC3CCCC123 (stereo unspecified)"
  growth inhibition, %: 12
- molecule: "O=C(O)/C=C\\C(=O)Nc1ccc2c(c1)Cc1cc(Cl)ccc1-2"
  growth inhibition, %: 4
- molecule: "CC1=C(C)C(=O)C2=C(OCCO2)C1=O"
  growth inhibition, %: -14
- molecule: "Nc1cc2c(cc1N)-c1ccccc1C2=O"
  growth inhibition, %: -1
